These data points were gathered from patent US20220380319A1.

Listed here are compounds together with their documented pIC50.
Study Target: acid ceramidase (Homo sapiens)
Construct: Cell lysates overexpressing acid ceramidase were used as the enzyme source; expressed in transfected cells
Sequence (Q13510 22-395): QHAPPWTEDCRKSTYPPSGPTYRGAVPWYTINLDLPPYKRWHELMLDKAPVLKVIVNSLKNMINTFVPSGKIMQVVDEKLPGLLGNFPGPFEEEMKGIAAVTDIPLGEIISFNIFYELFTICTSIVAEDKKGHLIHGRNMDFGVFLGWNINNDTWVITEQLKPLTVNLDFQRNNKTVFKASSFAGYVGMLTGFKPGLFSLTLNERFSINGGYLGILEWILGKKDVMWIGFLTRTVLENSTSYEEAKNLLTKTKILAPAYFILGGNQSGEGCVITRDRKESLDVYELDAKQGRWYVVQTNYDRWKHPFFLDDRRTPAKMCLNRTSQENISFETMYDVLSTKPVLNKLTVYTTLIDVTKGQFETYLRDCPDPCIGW
Procedure Text: Acid ceramidase inhibition, biochemical fluorescent assay with cell lysates overexpressing acid ceramidase, substrate Rbm14-12
Study Conditions: substrate Rbm14-12 6.3 μM, pH 4.5
pIC50: −log10 of the molar value.

Q: Indicate its recorded pIC50; the compound in question is O=C(NCCCc1ccccc1)n1cnc2c(N3CCN4CCCC4C3)cccc21 (stereo not drawn)
Result: > 6.70

Q: Kindly indicate its recorded pIC50. Item: `CC(C)CCNC(=O)n1cnc2c(N3CCN(CCC#N)CC3)cccc21`
Result: 6.00 to 6.70

Q: Item `COc1nc2c(N3CCN(C)CC3)cccc2n1C(=O)NCC#Cc1ccccc1` : provide pIC50
Result: 6.00 to 6.70

Further cases:
Q: Give me measured pIC50, please, for this compound: `O=C(NCCCc1ccccc1)n1cnc2c(N3CC(C(F)(F)F)C3)cccc21`
Result: > 6.70

Q: Supply reported pIC50 belonging to this compound: CN1CC(N2CC3CC2CN3c2cccc3c2ncn3C(=O)NCCOc2ccccc2)C1 (stereo not drawn)
Result: > 6.70

Q: Quickly give me recorded pIC50 for CN1CCC2CCN(c3cccc4c3ncn4C(=O)NCCCc3ccccc3)CC21 (stereo not drawn)
Result: > 6.70

Q: Give a short answer stating reported pIC50 for `CC(C)CCNC(=O)n1cnc2c(N3[C@@H]4CC[C@H]3COC4)cccc21` .
Result: 6.00 to 6.70

Q: Quote pIC50 reported for `CC(C)C#CCNC(=O)n1cnc2c(N3CCN(CCC(F)(F)F)CC3)cccc21` please.
Result: > 6.70

====

Quick reference for solubility among some compounds
Procedure Text: Compound solubility in water
# value in µg/mL; strip the unit string

Q: Supply solubility value. Item: `COc1cc(N2CCCCC2)c2ncn(C(=O)NCCCCC3CC3)c2c1`
Result: 0.2

Q: Please indicate solubility recorded for `COc1ccccc1C#CCNC(=O)n1cnc2c(N3CCN(C)CC3)cccc21`
Result: 20

Others:
Q: Give recorded solubility. `COc1ccnc2c1ncn2C(=O)NCCc1ccccc1`
Result: 9.5

Q: Specify solubility for `COc1nc2cc(N3CCN(C)CC3)ccc2n1C(=O)NCCCc1ccccc1` and stop.
Result: 30

Q: Please report solubility for the following compound: `CC(C)CCNC(=O)n1cnc2c(N3CCCOCC3)cccc21`
Result: 17

Q: // fetch solubility given entry `O=C(NCCc1ccccc1)n1cnc2ncc(C(F)(F)F)cc21`
Result: 4.7

Q: Hello, please tell me recorded solubility for this one: `CC(C)CCNC(=O)n1cnc2c(N3CCO[C@@H](C)C3)cccc21`
Result: 15

Q: Indicate its recorded solubility; the compound in question is CNC1CCN(c2cccc3c2ncn3C(=O)NCCOc2ccccc2)C1 (stereo not drawn)
Result: 30

Q: Supply reported solubility belonging to this compound: CCCCNC(=O)n1c(OC)nc2ccc(-c3cncnc3)cc21 [Example 82a]
Result: 21.8

====

Study Target: acid ceramidase (Homo sapiens, UniProt Q13510)
Construct: Cell lysates overexpressing acid ceramidase were used as the enzyme source; expressed in transfected cells
Sequence (Q13510 22-395): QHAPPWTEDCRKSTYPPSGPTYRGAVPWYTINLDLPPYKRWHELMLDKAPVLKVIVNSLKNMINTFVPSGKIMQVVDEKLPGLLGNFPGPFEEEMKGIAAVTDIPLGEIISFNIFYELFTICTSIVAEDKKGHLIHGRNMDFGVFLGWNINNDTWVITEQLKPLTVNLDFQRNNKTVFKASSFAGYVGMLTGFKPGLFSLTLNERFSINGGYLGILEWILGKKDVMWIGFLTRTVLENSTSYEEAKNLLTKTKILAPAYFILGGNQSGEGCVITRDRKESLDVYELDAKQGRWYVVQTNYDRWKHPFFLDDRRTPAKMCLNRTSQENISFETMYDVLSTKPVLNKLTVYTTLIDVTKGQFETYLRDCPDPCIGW
Procedure Text: Acid ceramidase inhibition, biochemical fluorescent assay with cell lysates overexpressing acid ceramidase, substrate Rbm14-12
Study Conditions: substrate Rbm14-12 6.3 μM, pH 4.5, 1 hr preincubation at RT
Measured IC50 values are reported for all entries that follow.

Worked examples, 4 compounds total:
Q: Return IC50 (reported value) for this compound: CCCCNC(=O)n1c(OC)nc2ccc(-c3cncnc3)cc21 [Example 82a]
Result: 200 to 1000 nM

Q: Report IC50 for COc1nc2cc(-c3cccnc3)ccc2n1C(=O)NCCc1ccccc1 [Example 30a]
Result: < 200 nM

Q: Look up IC50 of `CC(C)CCNC(=O)n1cnc2c(N3CCN(C)C4(CC4)C3)cccc21` and report it.
Result: 200 to 1000 nM

Q: Name the recorded IC50 of the compound listed here: `COc1c(-c2cncnc2)ccc2c1ncn2C(=O)NCC(C)C`
Result: 200 to 1000 nM

***
Q: Quickly give me recorded IC50 for `O=C(NCCc1ccccc1)n1cnc2ccc(-c3cncnc3)cc21`
Result: < 200 nM

====

Procedure Text: Compound solubility in water
Examples of compounds with documented solubility follow.
Report only the number, with the unit µg/mL understood.

A selection of reference data follows.
Q: Look up and state reported solubility for `COc1cccc(C#CCNC(=O)n2cnc3c(N4CCN(C)CC4)cccc32)c1`
Result: 13

Q: Specify reported solubility for the compound shown: O=C1CCC2CN(c3cccc4c3ncn4C(=O)NCCCc3ccccc3)CCN12 (centres unmarked)
Result: 15

Q: Give the reported value of solubility for this record: `CCCCNC(=O)n1c(=O)n(C)c2nc(-c3cncnc3)ccc21`
Result: 0.9

Q: State, in one line, measured solubility of `CCCCNC(=O)n1c(OCC)nc2ccccc21`
Result: 10.9

Next:
Q: Indicate its recorded solubility; the compound in question is `CC(C)CCNC(=O)n1cnc2c(N3CCN(C4COC4)CC3)cccc21`
Result: 30

====

Study Target: acid ceramidase (Homo sapiens, UniProt Q13510)
Construct: Cell lysates overexpressing acid ceramidase were used as the enzyme source; expressed in transfected cells
Procedure Text: Acid ceramidase inhibition, biochemical fluorescent assay with cell lysates overexpressing acid ceramidase, substrate Rbm14-12
Study Conditions: substrate Rbm14-12 6.3 μM, pH 4.5, 1 hr preincubation at RT
# IC50 listing for each entry below

Guide cases for IC50, answers given:
Q: Look up and report measured IC50 for this entry: `CC(C)CCNC(=O)n1c(OCCN(C)C)nc2ccccc21`
Result: < 200 nM

Q: Read the entry `O=C(NCCOc1ccccc1)n1cnc2ccccc21` and write its reported IC50.
Result: < 200 nM

Q: Identify the reported IC50 for the following entry. COc1nc2ccc(-c3cccnc3)cc2n1C(=O)NCCc1ccccc1 [Example 30b]
Result: < 200 nM

Q: In one line, give reported IC50 of the entry `CCOc1nc2ncccc2n1C(=O)NCCC(C)C` .
Result: 200 to 1000 nM

Q: Identify measured IC50 associated with `O=C(NCCCc1ccccc1)n1cnc2ccccc21`
Result: < 200 nM

Others:
Q: Look up and state reported IC50 for COc1ccc2ncn(C(=O)NCCc3ccccc3)c2c1 [Example 25b]
Result: < 200 nM

Q: Identify measured IC50 associated with `CC(C)CCNC(=O)n1cnc2c(N3CCN(CC(F)(F)F)CC3)cccc21`
Result: 200 to 1000 nM

Q: Please look at this molecule and report its IC50: `CC(C)Oc1nc2ccccc2n1C(=O)NCCc1ccccc1`
Result: < 200 nM

Q: State, in one line, measured IC50 of COc1nc2cc(-c3cncnc3)ccc2n1C(=O)NCC(C)C [Example 81b]
Result: 200 to 1000 nM

Q: Quote IC50 reported for `COc1nc2c(N3CCN(C)CC3)cccc2n1C(=O)NCCC(C)C` please.
Result: > 1000 nM

====

Study Target: acid ceramidase (Homo sapiens, UniProt Q13510)
Construct: Cell lysates overexpressing acid ceramidase were used as the enzyme source; expressed in transfected cells
Procedure Text: Acid ceramidase inhibition, biochemical fluorescent assay with cell lysates overexpressing acid ceramidase, substrate Rbm14-12
Study Conditions: substrate Rbm14-12 6.3 μM, pH 4.5, 1 hr preincubation at RT
Outcome Measure: IC50

Some solved entries appear below for comparison.
Q: Answer with the recorded IC50 of `COc1cccc(C#CCNC(=O)n2cnc3c(N4CCN(C)CC4)cccc32)c1` only.
Result: < 200 nM

Q: Recall and state the measured IC50 for `COc1cc(N2CCCCC2)c2ncn(C(=O)NCCCCC3CC3)c2c1` .
Result: < 200 nM

New cases:
Q: Recall and state the measured IC50 for `COc1nc2c(C#N)cccc2n1C(=O)NCC#CC(C)C` .
Result: < 200 nM

Q: Please report the measured IC50 for `COCCNC(=O)n1c(OC)nc2ncccc21`
Result: 200 to 1000 nM

Q: Please give measured IC50 of the following entry: `CCCCNC(=O)n1cnc2cc(F)ccc21`
Result: < 200 nM

Q: Please give measured IC50 of the following entry: `O=C(NCCCc1ccccc1)n1cnc2c(N3CCN(C4CC4)CC3)cccc21`
Result: < 200 nM

Q: Please report the measured IC50 for `CN1CCN(c2cccc3c2ncn3C(=O)NCC#Cc2ccc(F)cc2)CC1`
Result: < 200 nM

Q: Give the reported IC50 for this molecule. `CC(C)CCNC(=O)n1cnc2c(N3CCN(C)CC3)cccc21`
Result: 200 to 1000 nM

Q: Give a short answer stating reported IC50 for CC(C)CNC(=O)n1cnc2ccc(-c3cncnc3)cc21 [Example 16b] .
Result: < 200 nM

Q: Output measured IC50 for this item: `COc1nc2cc(-c3cccnc3)cnc2n1C(=O)NCC(C)C`
Result: 200 to 1000 nM

Q: Entry `CCCCNC(=O)n1c(OC)nc2c(OC)cccc21` needs its IC50 filled in; supply it.
Result: 200 to 1000 nM
